- System Tested: T1, Myo2-GTD (globular tail domain of Myo2) (Saccharomyces cerevisiae (strain S288c), UniProt P19524 1152-1574)
- T1 construct: Myo2 (class V myosin), S. cerevisiae, C-terminal globular tail domain (GTD); Named Trx-Myo2-GTD in the light scattering experiment; also called Trx-Myo2-GTD; source: E. coli BL21(DE3), purified (Ni2+-NTA, size exclusion chromatography); not shown: Trx, N-terminal, kept
- T1 sequence (looked up): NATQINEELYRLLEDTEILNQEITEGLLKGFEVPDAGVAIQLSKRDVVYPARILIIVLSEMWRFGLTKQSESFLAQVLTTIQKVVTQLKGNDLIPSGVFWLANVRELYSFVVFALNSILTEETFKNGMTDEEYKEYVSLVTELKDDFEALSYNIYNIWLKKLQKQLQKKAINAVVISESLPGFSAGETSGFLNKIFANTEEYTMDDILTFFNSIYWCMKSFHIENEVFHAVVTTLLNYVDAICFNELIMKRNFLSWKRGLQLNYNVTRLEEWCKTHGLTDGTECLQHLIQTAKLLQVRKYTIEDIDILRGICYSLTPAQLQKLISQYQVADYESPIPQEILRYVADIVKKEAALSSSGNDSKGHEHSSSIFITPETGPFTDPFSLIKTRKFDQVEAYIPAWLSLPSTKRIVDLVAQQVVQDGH
- Run Description: ITC; 200 μM Vac17-MIS in the syringe titrated into 20 μM Myo2-GTD in the cell, 25 °C; one-site binding model
- Experimental Conditions: both partners purified
Property Measured: Kd

Query Kd for PNEAPNDSPQSQSTRSSLGSFQPRPLKIIERQRLCMVTPSKPPKKS (domain or fragment, Saccharomyces cerevisiae (strain S288c), UniProt P25591 112-157, looked up, Vac17 (vacuole-related protein 17), S. cerevisiae, region containing residues 112-157 (MIS); Named Trx-tagged in the light scattering; also called Trx-Vas17-MIS; Vac17-MIS wild-type; source: E. coli BL21(DE3), purified (Ni2+-NTA, size exclusion chromatography); not shown: Trx, N-terminal, kept) [Vac17-MIS (Myo2-interacting sequence of Vac17)]
~300 nM
